testDescription: Cytotoxicity against mouse NIH/3T3 cells assessed as cell growth at 10 uM after 24 hrs by MTT assay
Format: cell-based, NIH3T3
condition: read-out: Activity
Examples of compounds with documented viability at 24 h, 10 µM follow.
Express your answer in %, writing the number without its unit.

{"recordSmiles": "CC(=O)O[C@H]1CC[C@](C)(O)[C@]23OC(C)(C)[C@H]([C@H](OC(=O)/C=C\\c4ccccc4)[C@H](OC(=O)c4ccccc4)[C@]12C)[C@H]3OC(C)=O", "viability at 24 h, 10 µM, %": 51.4}

Determine from records and report viability at 24 h, 10 µM for CC(=O)OC[C@]12[C@@H](OC(=O)c3ccccc3)[C@@H](OC(C)=O)[C@@H]3[C@@H](OC(=O)c4ccccc4)[C@]1(OC3(C)C)[C@@](C)(O)C[C@H](OC(C)=O)[C@@H]2OC(C)=O
64.4

Determine from records and report viability at 24 h, 10 µM for CC(=O)O[C@H]1[C@@H](OC(=O)c2ccccc2)C[C@@H](C)[C@]23OC(C)(C)[C@H](C[C@H](OC(=O)c4ccccc4)[C@]12C)[C@H]3OC(=O)c1cccnc1
75.4

Determine from records and report viability at 24 h, 10 µM for CC(=O)O[C@H]1C[C@](C)(O)[C@]23OC(C)(C)[C@H]([C@H](OC(=O)/C=C/c4ccccc4)[C@H](OC(=O)c4ccccc4)[C@]2(C)[C@H]1OC(C)=O)[C@H]3O
69

====

targetOrTestSystem: ATP-dependent translocase ABCB1 (Homo sapiens, UniProt P08183)
Sequence (P08183 whole entry): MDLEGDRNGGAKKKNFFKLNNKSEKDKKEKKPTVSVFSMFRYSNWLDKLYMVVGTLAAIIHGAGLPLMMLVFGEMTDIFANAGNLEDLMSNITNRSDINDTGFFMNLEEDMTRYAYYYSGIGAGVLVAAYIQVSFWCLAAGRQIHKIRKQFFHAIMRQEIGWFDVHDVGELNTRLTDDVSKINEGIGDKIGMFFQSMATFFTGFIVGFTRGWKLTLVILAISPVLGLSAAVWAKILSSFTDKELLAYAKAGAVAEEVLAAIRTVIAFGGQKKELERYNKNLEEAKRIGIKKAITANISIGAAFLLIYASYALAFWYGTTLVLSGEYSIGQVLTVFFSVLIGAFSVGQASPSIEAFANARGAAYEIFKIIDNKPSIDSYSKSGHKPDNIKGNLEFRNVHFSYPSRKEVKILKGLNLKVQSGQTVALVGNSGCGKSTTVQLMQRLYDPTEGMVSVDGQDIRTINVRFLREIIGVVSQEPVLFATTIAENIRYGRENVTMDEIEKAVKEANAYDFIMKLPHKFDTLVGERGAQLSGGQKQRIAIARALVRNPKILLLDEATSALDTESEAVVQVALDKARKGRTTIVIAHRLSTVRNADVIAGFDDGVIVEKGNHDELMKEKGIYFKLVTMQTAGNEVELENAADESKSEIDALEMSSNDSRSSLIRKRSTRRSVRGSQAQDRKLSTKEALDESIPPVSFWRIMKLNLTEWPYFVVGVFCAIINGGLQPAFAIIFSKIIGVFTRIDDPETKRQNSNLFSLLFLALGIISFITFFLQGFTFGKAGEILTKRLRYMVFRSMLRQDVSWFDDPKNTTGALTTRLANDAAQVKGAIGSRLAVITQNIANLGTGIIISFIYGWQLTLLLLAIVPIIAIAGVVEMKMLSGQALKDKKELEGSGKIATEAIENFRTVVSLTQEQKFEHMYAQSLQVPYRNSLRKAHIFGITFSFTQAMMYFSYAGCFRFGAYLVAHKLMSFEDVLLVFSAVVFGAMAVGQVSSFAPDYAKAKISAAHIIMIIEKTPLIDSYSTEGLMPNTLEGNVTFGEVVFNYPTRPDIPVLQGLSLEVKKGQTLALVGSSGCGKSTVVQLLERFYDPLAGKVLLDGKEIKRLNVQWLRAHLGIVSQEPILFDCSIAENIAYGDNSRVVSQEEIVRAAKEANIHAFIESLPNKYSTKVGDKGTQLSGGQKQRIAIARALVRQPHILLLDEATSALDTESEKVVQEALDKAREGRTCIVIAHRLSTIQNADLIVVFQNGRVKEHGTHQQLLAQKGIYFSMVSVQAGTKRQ
testDescription: Inhibition of human MDR1 transfected in mouse NIH/3T3 MDR1-G185 cells assessed as […] daunomycin accumulation after 30 mins by flow cytometry
readoutLabel: pKi
Remember, pKi is on a log scale: it is -log10 of the molar concentration.

Please review the following examples before continuing.
{"recordSmiles": "CC(=O)O[C@H]1CC[C@](C)(O)[C@]23OC(C)(C)[C@H]([C@H](OC(=O)/C=C\\c4ccccc4)[C@H](OC(=O)c4ccccc4)[C@]12C)[C@H]3OC(C)=O", "pKi": 6.21}
{"recordSmiles": "CC(=O)O[C@H]1[C@@H](OC(=O)c2ccccc2)C[C@@H](C)[C@]23OC(C)(C)[C@H](C[C@H](OC(=O)c4ccccc4)[C@]12C)[C@H]3OC(=O)c1cccnc1", "pKi": 6.54}
{"recordSmiles": "CC(=O)O[C@H]1C[C@](C)(O)[C@]23OC(C)(C)[C@H]([C@H](OC(=O)/C=C/c4ccccc4)[C@H](OC(=O)c4ccccc4)[C@]2(C)[C@H]1OC(C)=O)[C@H]3O", "pKi": 6.38}

Provide ATP-dependent translocase ABCB1 (Homo sapiens, UniProt P08183) pKi reading for CC(=O)OC[C@]12[C@@H](OC(=O)c3ccccc3)[C@@H](OC(C)=O)[C@@H]3[C@@H](OC(=O)c4ccccc4)[C@]1(OC3(C)C)[C@@](C)(O)C[C@H](OC(C)=O)[C@@H]2OC(C)=O .
6.11

====

testDescription: Cytotoxicity against human MDR1 transfected mouse NIH/3T3 MDR1-G185 cells assessed as cell growth at 10 uM after 24 hrs by MTT assay
Type: ADME, cell-based, NIH3T3
condition: mouse NIH/3T3 MDR1-G185 cells transfected with human MDR1, read-out: Activity
Label YES when viability at 24 h, 10 µM < 70%; otherwise NO.

Answered examples (2):
{"compound": "CC(=O)O[C@H]1C[C@](C)(O)[C@]23OC(C)(C)[C@H]([C@H](OC(=O)/C=C/c4ccccc4)[C@H](OC(=O)c4ccccc4)[C@]2(C)[C@H]1OC(C)=O)[C@H]3O", "class": "NO"}
{"compound": "COc1ccc(CCN(C)CCCC(C#N)(c2ccc(OC)c(OC)c2)C(C)C)cc1OC (stereo not given)", "class": "NO"}

Consider the compound CC(=O)O[C@H]1CC[C@](C)(O)[C@]23OC(C)(C)[C@H]([C@H](OC(=O)/C=C\c4ccccc4)[C@H](OC(=O)c4ccccc4)[C@]12C)[C@H]3OC(C)=O . Is its viability at 24 h, 10 µM strictly less than 70%?
YES

Data provenance: ChEMBL document CHEMBL3576793
